The origin of these recorded values is ChEMBL document CHEMBL6103545.

# experimentalProtocol: AUC (0 to 24 hrs) in cynomolgus monkey at 5 mg/kg, po measured after 24 hrs by LC/MS/MS analysis
# Format: ADME, organism-based, Macaca fascicularis
# assayConditions: in vivo
measuredParameter: AUC(0-t) at 24 h (µM·h)

P. C[C@@H](OC(=O)Nc1c(-c2ccc(NC(=O)c3cnc(C(F)(F)F)nc3)cn2)nnn1C)c1cc(F)cnc1F
Q. C[C@@H](OC(=O)Nc1c(-c2ccc(NS(C)(=O)=O)cn2)nnn1C)c1cc(F)cnc1F
Prompt line: I'd appreciate it if you could identify which of P and Q has the greater AUC(0-t) at 24 h. Give the chosen item's label as your response.
Response line: Q
(Q: 13 µM·h, P: 8.9 µM·h)

----------
# experimentalProtocol: Apparent permeability from apical to basolateral side in human Caco-2 cells at 10 uM
# Type: ADME, cell-based
measuredParameter: Papp A→B at 10 µM (×10⁻⁶ cm/s)
Could you give me the number in ×10⁻⁶ cm/s? Just the number is fine.

Prompt line: Which Papp A→B at 10 µM value is on record for C[C@@H](OC(=O)Nc1c(-c2ccc(NC(=O)c3cnc(C(F)(F)F)nc3)cn2)nnn1C)c1cc(F)cnc1F ?
Response line: 0.4

----------
# experimentalProtocol: Half-life in male Sprague-Dawley rat at 5 mg/kg, po measured after 24 hrs by LC/MS/MS analysis
# Format: ADME, organism-based
# assayConditions: in vivo
measuredParameter: half-life (h)
Could you give me the number in h? Just the number is fine.

Prompt line: Which half-life value is on record for C[C@@H](OC(=O)Nc1c(-c2ccc(NC(=O)c3cnc(C(F)(F)F)nc3)cn2)nnn1C)c1cc(F)cnc1F ?
Response line: 3.9

----------
# systemUnderTest: Lysophosphatidic acid receptor 1 (Homo sapiens)
# Sequence (Q92633 whole entry): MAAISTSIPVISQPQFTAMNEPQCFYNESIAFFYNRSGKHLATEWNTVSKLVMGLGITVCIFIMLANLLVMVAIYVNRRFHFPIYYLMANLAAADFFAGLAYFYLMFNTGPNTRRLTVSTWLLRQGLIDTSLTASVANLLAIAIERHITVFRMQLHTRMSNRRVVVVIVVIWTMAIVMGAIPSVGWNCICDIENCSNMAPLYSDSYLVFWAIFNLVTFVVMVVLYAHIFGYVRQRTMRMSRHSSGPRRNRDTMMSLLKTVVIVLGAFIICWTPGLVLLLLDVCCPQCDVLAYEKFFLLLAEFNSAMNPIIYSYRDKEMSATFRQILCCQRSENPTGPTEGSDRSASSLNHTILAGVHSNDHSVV
# experimentalProtocol: […] at LPA1 receptor in human TWNT-4 cells assessed as nuclear translocation pre-incubated for 1 hr followed by 30 min incubation by MRTF-A assay
# Type: functional, cell-based
measuredParameter: pEC50
Note on pEC50: it is the negative log10 of concentration, concentration in mol/L.

Prompt line: Which pEC50 value is on record for CCCCCCCC/C=C\CCCCCCCC(=O)OC[C@@H](O)COP(=O)(O)O ?
Response line: 7.33

----------
# experimentalProtocol: Plasma protein binding in human assessed as unbound fraction incubated for 24 hrs by equilibrium dialysis based Rapidfire-QToF mass spectrometric analysis
# Assay type: ADME, cell-free
A collection of compounds and their measured fraction unbound at 24 h
// return just the number, without any unit appended

Prompt line: Which fraction unbound at 24 h value is on record for Cc1ccc(C(=O)Nc2ccc(-c3nnn(C)c3NC(=O)O[C@H](C)c3cc(F)cnc3F)nc2)cn1 ?
Response line: 0.32

Prompt line: Please give the result for C[C@@H](OC(=O)Nc1c(-c2ccc(NC(=O)C3(C(F)F)CC3)cn2)nnn1C)c1cc(F)cnc1F too.
Response line: 0.56

Prompt line: Please give the result for CC(=O)Nc1ccc(-c2nnn(C)c2NC(=O)O[C@H](C)c2cc(F)cnc2F)nc1 too.
Response line: 0.36

Prompt line: Please give the result for C[C@@H](OC(=O)Nc1c(-c2ccc(NC(=O)c3ccc(C(F)(F)F)nc3)cn2)nnn1C)c1cc(F)cnc1F too.
Response line: 0.15

----------
# experimentalProtocol: Plasma protein binding in human assessed as unbound fraction incubated for 24 hrs by equilibrium dialysis based Rapidfire-QToF mass spectrometric analysis
# Type: ADME, cell-free
measuredParameter: fraction unbound at 24 h
// return just the number, without any unit appended

Recorded results for 3 molecules are shown here.
substanceSmiles	fraction unbound at 24 h
Cc1nc(-c2nnn(C)c2NC(=O)O[C@H](C)c2cc(F)ccc2F)ccc1NS(C)(=O)=O	0.19
Cc1nc(-c2nnn(C)c2NC(=O)O[C@H](C)c2cccnc2F)ccc1NS(C)(=O)=O	0.38
C[C@@H](OC(=O)Nc1c(-c2ccc(NC(=O)[C@@H]3CC3(F)F)cn2)nnn1C)c1cc(F)cnc1F	0.35

Please examine the following record next.
Prompt line: Which fraction unbound at 24 h value is on record for C[C@@H](OC(=O)Nc1c(-c2ccc(NC(=O)c3ccnc(C(F)(F)F)c3)cn2)nnn1C)c1cc(F)cnc1F ?
Response line: 0.14
